assay: self-splicing fitness, log relative to wild type (ln ratio); higher = more splicing; Tetrahymena group I intron in knt gene, E. coli kanamycin selection, DiMSum; sequences stand for … in CUCUCU…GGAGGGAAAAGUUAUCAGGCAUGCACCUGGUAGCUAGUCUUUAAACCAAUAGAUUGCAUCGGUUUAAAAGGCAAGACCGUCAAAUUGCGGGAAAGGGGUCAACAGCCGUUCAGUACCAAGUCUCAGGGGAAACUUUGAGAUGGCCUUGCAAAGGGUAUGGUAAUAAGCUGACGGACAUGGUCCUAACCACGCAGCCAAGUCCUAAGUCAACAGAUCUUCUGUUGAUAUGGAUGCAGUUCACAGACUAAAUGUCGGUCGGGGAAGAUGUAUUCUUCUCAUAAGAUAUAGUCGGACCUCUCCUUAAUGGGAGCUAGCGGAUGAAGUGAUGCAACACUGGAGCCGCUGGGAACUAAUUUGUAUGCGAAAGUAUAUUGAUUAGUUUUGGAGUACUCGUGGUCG; details: 37 °C;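 note: selection with 25 µg/mL kanamycin versus none on LB agar overnight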
Labels assigned by self-splicing fitness (ln) range: low end (below -2), middle (-2 to below -0.8), high end (-0.8 or more)

Request: Note: place this sequence into its band. Item: AGCUAGCAAUAUUACGGCCA
Result: high end

Request: And what about the sequence CUUUAGCAAUAUUACGUCGG ?
Result: middle

Request: And what about the sequence GUCCAGCAAUAUUACGGGAU ?
Result: low end

Request: And what about the sequence GGGCAGCAAUAUUACGAUCA ?
Result: high end

Request: And what about the sequence UCAAAGCAAUAUUACGAUCG ?
Result: high end

Request: And what about the sequence AUGCAGCAAUAUUACGGGUA ?
Result: middle
